TGT: Calmodulin-1 (Homo sapiens)
ASSAY_PROCEDURE: calcium-bound CALM1 binders on microarrays, profiling panel, artefact control for SMM control-protein annotation, biochemical, small-molecule microarray, Cy5-labelled CALM1, plus calcium (AID 1112);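 note: score merges spot fluorescence with signal to noise from triplicate slides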
ASSAY_SETUP: Cy5-CALM1 binding fluorescence, higher = more signal
// class assignment uses composite z-score with these ranges: bin 1 = under -0.4, bin 2 = from -0.4 up to 0.5, bin 3 = 0.5 and over

{"columns": ["MOLECULE", "LABEL"],
 "data": [
  ["COCCOC(=O)N1C(=O)[C@@]2(c3cc(C#CCNC(N)=O)ccc31)[C@H](C(=O)N1CCN(c3ncccn3)CC1)[C@H]1C(=O)O[C@H](c3ccccc3)[C@H](c3ccccc3)N1[C@@H]2c1ccc(O)cc1", "bin 1"],
  ["COC(=O)C(CC#Cc1ccc2c(c1)[C@]1(C(=O)N2)[C@H](c2ccc(OCCO)cc2)N2[C@H](c3ccccc3)[C@H](c3ccccc3)OC(=O)[C@H]2[C@@H]1C(N)=O)C(=O)OC", "bin 2"],
  ["CCCC=C(CCC)[C@@H](NC(=O)c1ccc(C(=O)OC)cc1)c1ccc(C(=O)OC)cc1", "bin 3"],
  ["C=CCOC(=O)[C@@H]1[C@H]2C(=O)O[C@H](c3ccccc3)[C@H](c3ccccc3)N2[C@H](c2ccc(OCCOC(=O)[C@H]3C[C@H]4C(=O)N[C@@H](CCCCN(C)C)C(=O)N4[C@H]3c3cccc(OCCO)c3)cc2)[C@@]12C(=O)Nc1ccccc12", "bin 2"],
  ["C=C(C)C1CN([C@H](CO)c2ccccc2)C(=O)/C1=C\\c1ccccc1 (some centres not stated)", "bin 1"],
  ["O=C1NC(=O)C2C1C=CC(C(O)C(c1ccccc1)c1ccccc1)N2Nc1ccccn1 (configuration not stated)", "bin 2"],
  ["C=CCNC(=O)[C@@H]1[C@H]2C(=O)O[C@H](c3ccccc3)[C@H](c3ccccc3)N2[C@H](c2ccc(O)cc2)[C@@]12C(=O)Nc1ccc(C#CC3=CCCCC3)cc12", "bin 3"],
  ["CC(C)(C)OC(=O)CC[C@]1(C(N)=O)N=C(c2ccc(OCCCO)cc2)O[C@H]1c1ccccc1N=[N+]=[N-]", "bin 3"],
  ["O=C(O)C1=CC[C@H]2C(=O)N(c3ccccc3)C(=O)[C@@H]12", "bin 2"],
  ["CN(C)CCCC[C@@H]1NC(=O)[C@H]2C[C@@H](C(=O)NCCCCCCNC(=O)CS)[C@@H](c3cccc(OCCO)c3)N2C1=O", "bin 2"],
  ["C=C(CCCC)/C(=C/C[C@@H](OC(C)=O)c1cccc(OCCO)c1)c1cc(C(=O)OC)ccc1OC", "bin 1"],
  ["COc1ccc(CCNC(=O)[C@@H]2c3ccccc3C(=O)N(C(C)C)[C@H]2c2ccc(CO)cc2)cc1", "bin 2"],
  ["CN(C)CCCCNC(=O)[C@H]1C[C@H]2C(=O)N[C@@H](CCCCN(C)C)C(=O)N2[C@H]1c1ccc(O)cc1", "bin 1"],
  ["COc1ccc([Si](C)(C)[C@@H]2[C@@H](CC(=O)N(CCO)Cc3ccccc3)O[C@]3(C(=O)N(Cc4cccc(I)c4)c4ccccc43)[C@H]2C)cc1", "bin 3"],
  ["O=C1O[C@H](c2ccccc2)[C@H](c2ccccc2)N2[C@H]1[C@@H](C(=O)N1CCN(c3ncccn3)CC1)[C@]1(C(=O)Nc3ccc(C#CC4(O)CCCCCC4)cc31)[C@H]2c1ccc(O)cc1", "bin 3"],
  ["CC[C@H]1C2=C3C(CC[C@H]4C(OCc5ccc(F)cc5C(F)(F)F)OC[C@](C)([C@@H]34)N(C(=O)OC(C)(C)C)C2)C(COC(C)=O)C1COC(C)=O (some centres not stated)", "bin 3"],
  ["CN1C2C=C(c3ccc(CO)cc3)C(C3C(=O)N(C(N)=O)C(=O)C32)C1C1CC1 (configuration not stated)", "bin 1"],
  ["CC(C)[Si](C#Cc1ccccc1)(O[C@H](c1ccccc1)c1cn(Cc2ccccc2)nn1)C(C)C", "bin 1"],
  ["C=CCNC(=O)[C@H]1[C@@H]2C(=O)O[C@@H](c3ccccc3)[C@@H](c3ccccc3)N2[C@@H](c2ccc(OCCO)cc2)[C@]12C(=O)Nc1ccc(C#Cc3ccc(OC)cc3)cc12", "bin 3"],
  ["COc1ccc(C(O)C2C=CC3C(=O)N(c4ccccc4)C(=O)C3N2Nc2ccccc2F)c2ccccc12 (configuration not stated)", "bin 3"],
  ["COc1ccc([Si](C)(C)[C@H]2[C@H](CC(=O)N3CCC[C@H]3CO)O[C@@]3(C(=O)N(C)c4c(Br)cc(C)cc43)[C@@H]2C)cc1", "bin 2"],
  ["CC1C2C(CCCO)=CC(C3C(=O)N(C(N)=O)C(=O)C23)N1Cc1cccc(OC(F)(F)F)c1 (configuration not stated)", "bin 2"],
  ["CC(C)C(=C=CC[C@H](O)c1cccc(OCCO)c1)C[C@H](O)c1ccccn1", "bin 1"],
  ["COCCOC(=O)N1C(=O)[C@@]2(c3cc(C#CC4=CCCCC4)ccc31)[C@H](c1ccc(O)cc1)N1[C@H](c3ccccc3)[C@H](c3ccccc3)OC(=O)[C@H]1[C@@H]2C(=O)N1CCc2cc(OC)c(OC)cc2C1", "bin 3"],
  ["COCCCNC(=O)[C@@]1(c2ccc([N+](=O)[O-])cc2)CC(=O)N(C2CCCCC2)[C@@H]1c1ccc(CO)cc1I", "bin 2"],
  ["C=C(COC)/C(=C/C[C@@H](OC(=O)c1ccncc1)c1ccccc1OCCO)c1cnc2ccccc2c1", "bin 1"]
]}

All figures here come from PubChem BioAssay.
